Where do these numbers come from? They come from PubChem BioAssay (Tox21).

- assay_explanation: Caspase-3/7 induction in CHO-K1 cells by small molecules, qHTS assay (AID 1346980); also: % is scaled to controls: 0 for no effect and ±100 for the full control effect; nearly all actives have a fitted effect of over 15% in size
- conditions: CHO-K1 caspase-3/7 induction, Caspase-Glo luminescence, 17 h; series mostly up to 92.4 µM
The source made the active and inactive calls. Calls follow the shape of the dose curve; as a rule, active = well fitted activation curve with a large enough effect in the repeat runs; inconclusive = weak or mixed curves; inactive = flat fitted curve, though single readings scatter.
measure_name: caspase-3/7 activation

>>> assay_value("CCC1(c2ccccc2)CCC(=O)NC1=O (stereo unspecified)")
"inactive"
>>> assay_value("CC[C@H](N)c1ccccc1")
"inactive"
>>> assay_value("COC(=O)c1ccccc1CS(=O)(=O)NC(=O)Nc1nc(OC)cc(OC)n1")
"inactive"
>>> assay_value("BrCc1ccc(Br)cc1")
"inactive"
>>> assay_value("Cc1ccc(Cl)c(O)c1")
"inactive"
>>> assay_value("CCNP(=S)(OC)O/C(C)=C/C(=O)OC(C)C (stereo unspecified)")
"inactive"
>>> assay_value("CCOc1cc(OP(=S)(OC)OC)nc(CC)n1")
"inactive"
>>> assay_value("CCC1(c2cccc(O)c2)CCCCN(C)C1 (stereo unspecified)")
"inactive"
>>> assay_value("CN(CCO)CCO")
"inactive"
>>> assay_value("NCC1(CC(=O)O)CCCCC1")
"inactive"
>>> assay_value("COc1ccc(CN2CCNCC2)c(OC)c1OC")
"inactive"
>>> assay_value("Cc1ccc(-c2nc3ccc(C)cn3c2CC(=O)N(C)C)cc1")
"inactive"
>>> assay_value("N[C@@H]1C[C@H]1c1ccccc1")
"inactive"
>>> assay_value("Cc1ccc(S(=O)(=O)N[C@@H](CCCCN)C(=O)CCl)cc1")
"inactive"
>>> assay_value("COc1ccc(C=O)cc1O")
"inactive"
>>> assay_value("C=C(C)[C@H]1CN[C@H](C(=O)O)[C@H]1CC(=O)O")
"inactive"
>>> assay_value("O=c1[nH]c2ccccc2o1")
"inactive"
>>> assay_value("CC[C@H](O)C(C[C@H](C)N(C)C)(c1ccccc1)c1ccccc1")
"inactive"
>>> assay_value("O=CCCl")
"inactive"
>>> assay_value("CC(Cl)(Cl)Cl")
"inactive"
>>> assay_value("CCOC(=O)CCl")
"inactive"
>>> assay_value("O=C(Cl)C(Cl)Cl")
"inactive"
>>> assay_value("CCCN1CCC[C@@H]2Cc3[nH]ncc3C[C@H]21")
"inactive"
>>> assay_value("CON(C)C(=O)Nc1ccc(Br)cc1")
"inactive"
>>> assay_value("CCNc1nc(NCC)nc(SC)n1")
"inactive"
>>> assay_value("Clc1cc2c(cc1Cl)Oc1cc(Cl)c(Cl)cc1O2")
"0.0442% [at 0.349 µM] (inactive)"
>>> assay_value("O=C1CC(=O)NC(=O)N1")
"inactive"
>>> assay_value("O=C(Cl)c1ccccc1")
"inactive"
>>> assay_value("O=C(CCl)NCO")
"inactive"
>>> assay_value("C/C(=N\\NC(=O)Nc1cc(F)cc(F)c1)c1ncccc1C(=O)O")
"inactive"
>>> assay_value("CCNc1nc(Cl)nc(NC(C)(C)C)n1")
"inactive"

* * *

- assay_explanation: qHTS assay to identify small molecule antagonists of the progesterone receptor (PR) signaling pathway - cell viability counter screen (AID 1346798);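 also: HEK293T PR-UAS-bla cells stimulated with the agonist R5020; % is scaled to controls: 0 for no effect and ±100 for the full control effect; nearly all actives have a fitted effect of over 50% in size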
- conditions: PR-UAS-bla HEK293T viability, CellTiter-Glo luminescence, 16 h; series mostly up to 92.4 µM
Results filed as inconclusive are left out. Activity calls are given as the source filed them. Calls come from the whole dose curve; as a rule, active = well fitted cell-killing curve with a large enough effect in the repeat runs; inconclusive = weak or mixed curves, or effect the other way; inactive = no such curve, though single readings can be large or run the other way.
measure_name: activity change, negative = cytotoxicity

>>> assay_value("C/C=C/CC#N")
"inactive"
>>> assay_value("CCCCCCCCSC(=O)Oc1cc(Cl)nnc1-c1ccccc1")
"inactive"
>>> assay_value("COP(=O)(O)OC")
"inactive"
>>> assay_value("N=C(N)[Se]")
"inactive"
>>> assay_value("O=C(Cl)CCl")
"inactive"
>>> assay_value("O=C(NC(=O)c1c(F)cccc1F)Nc1cc(Cl)c(F)c(Cl)c1F")
"inactive"
>>> assay_value("CC(C)(C)C(=O)C(Cl)Cl")
"inactive"
>>> assay_value("O=C(Cl)c1ccccc1")
"inactive"

* * *

- measurement_target: Aromatase (Homo sapiens)
- assay_explanation: qHTS assay to identify aromatase inhibitors (AID 743083); also: nearly all actives have a fitted effect of over 55% in size
- conditions: MCF-7 aro ERE, testosterone-driven ERE luciferase, 24 h; series mostly up to 70.3 µM
Inconclusive results are not listed. The source made the active and inactive calls. Calls follow the shape of the dose curve; as a rule, active = well fitted inhibition curve with a large enough effect in the repeat runs; inconclusive = weak or mixed curves; inactive = no such curve, though single readings can be large or run the other way.
Outcomes: active, inactive

>>> discrete_label("C[C@H]1CCCC(=O)CCC/C=C/c2cc(O)cc(O)c2C(=O)O1")
"active"
>>> discrete_label("CCOP(=S)(OCC)Oc1ccc(Cl)cc1Cl")
"inactive"
>>> discrete_label("C=CC1(C)OC(=O)N(c2cc(Cl)cc(Cl)c2)C1=O (stereo not given)")
"inactive"
>>> discrete_label("O=C(CCl)NCO")
"inactive"
>>> discrete_label("C=CC(=O)OCCN(C)C")
"inactive"
>>> discrete_label("OP(O)c1ccccc1")
"inactive"
>>> discrete_label("CCCC(C)C1(CC)C(=O)N=C(S)NC1=O (stereo not given)")
"inactive"
>>> discrete_label("CCC1(c2ccccc2)C(=O)N(COC)C(=O)N(COC)C1=O")
"inactive"
>>> discrete_label("CN(CCO)CCO")
"inactive"
>>> discrete_label("CN=CNc1ccc(C)cc1C")
"inactive"
>>> discrete_label("CCOP(=O)(CN(CCO)CCO)OCC")
"inactive"
>>> discrete_label("O=C(O)C(Cl)Br (stereo not given)")
"inactive"
>>> discrete_label("CCOC(=O)C(SP(=S)(OC)OC)c1ccccc1 (stereo not given)")
"inactive"
>>> discrete_label("COc1ccc(C=O)cc1O")
"inactive"
>>> discrete_label("CCCC[N+](=O)[O-]")
"inactive"

* * *

- assay_explanation: Human pregnane X receptor (PXR) small molecule agonists, qHTS cell viability counter screen (AID 1346977); also: % is scaled to controls: 0 for no effect and ±100 for the full control effect; nearly all actives have a fitted effect of over 50% in size
- conditions: PXR-Luc HepG2 viability, CellTiter-Fluor, 24 h; series mostly up to 92.4 µM
Results filed as inconclusive are left out. Activity calls are given as the source filed them. Calls follow the shape of the dose curve; as a rule, active = well fitted cell-killing curve with a large enough effect in the repeat runs; inconclusive = weak or mixed curves, or effect the other way; inactive = flat fitted curve, though single readings scatter.
measure_name: activity change, negative = cytotoxicity

>>> assay_value("COc1cc(CCN)cc(OC)c1OC")
"inactive"
>>> assay_value("CCCCCCCCBr")
"inactive"
>>> assay_value("CN1COCN(Cc2cnc(Cl)s2)/C1=N\\[N+](=O)[O-]")
"inactive"
>>> assay_value("CCN(CCO)CCn1c(Cc2ccccc2)nc2c1c(=O)n(C)c(=O)n2C")
"inactive"
>>> assay_value("COC(=O)c1ccccc1CS(=O)(=O)NC(=O)Nc1nc(OC)cc(OC)n1")
"inactive"
>>> assay_value("ClCOCCl")
"inactive"
>>> assay_value("CCSC(=O)Cl")
"inactive"

* * *

- assay_explanation: Human pregnane X receptor (PXR) small molecule agonists, qHTS cell viability counter screen (AID 1346977); also: % is scaled to controls: 0 for no effect and ±100 for the full control effect; nearly all actives have a fitted effect of over 50% in size
- conditions: PXR-Luc HepG2 viability, CellTiter-Fluor, 24 h; series mostly up to 92.4 µM
Records with an inconclusive call do not appear. The source made the active and inactive calls. Calls come from the whole dose curve; as a rule, active = well fitted cell-killing curve with a large enough effect in the repeat runs; inconclusive = weak or mixed curves, or effect the other way; inactive = flat fitted curve, though single readings scatter.
measure_name: activity change, negative = cytotoxicity

>>> assay_value("CC#Cc1cc(C)nc(Nc2ccccc2)n1")
"inactive"
>>> assay_value("CCCC(C)C1(CC)C(=O)N=C(S)NC1=O (stereo not drawn)")
"inactive"
>>> assay_value("O=C(Cl)c1ccccc1")
"inactive"
>>> assay_value("CCCCCCCC(=O)Cl")
"inactive"
>>> assay_value("COC[C@@H](NC(C)=O)C(=O)NCc1ccccc1")
"inactive"
>>> assay_value("C[C@H](N)C(=O)c1ccccc1")
"inactive"
>>> assay_value("Cc1ccc(Cl)c(O)c1")
"inactive"
>>> assay_value("C=CCCC#N")
"inactive"

* * *

- measurement_target: Estrogen receptor (Homo sapiens) (UniProt P03372)
- Sequence (P03372 whole entry, looked up): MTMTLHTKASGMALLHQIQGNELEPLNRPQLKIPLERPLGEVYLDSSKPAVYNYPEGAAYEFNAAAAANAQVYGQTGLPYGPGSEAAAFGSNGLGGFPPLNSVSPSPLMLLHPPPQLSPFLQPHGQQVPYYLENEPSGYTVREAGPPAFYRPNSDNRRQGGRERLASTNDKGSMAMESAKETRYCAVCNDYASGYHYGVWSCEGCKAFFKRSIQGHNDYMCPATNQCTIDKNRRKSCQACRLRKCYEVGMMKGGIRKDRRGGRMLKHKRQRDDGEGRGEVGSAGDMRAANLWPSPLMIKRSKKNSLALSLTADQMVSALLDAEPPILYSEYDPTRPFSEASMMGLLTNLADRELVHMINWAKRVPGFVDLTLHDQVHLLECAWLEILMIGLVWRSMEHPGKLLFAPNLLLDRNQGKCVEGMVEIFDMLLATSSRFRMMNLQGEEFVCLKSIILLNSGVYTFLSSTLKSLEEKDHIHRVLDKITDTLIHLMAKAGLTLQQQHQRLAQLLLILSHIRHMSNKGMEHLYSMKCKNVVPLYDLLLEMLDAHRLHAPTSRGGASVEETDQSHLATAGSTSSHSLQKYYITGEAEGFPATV
- assay_explanation: qHTS assay to identify small molecule antagonists of the estrogen receptor alpha (ER-alpha) signaling pathway using the BG1 cell line in the presence of 0.1 nM 17-beta-estradiol (AID 1259244); also: % is scaled to controls: 0 for no effect and ±100 for the full control effect; nearly all actives have a fitted effect of over 50% in size
- conditions: VM7Luc4E2 (BG1) ERE-luciferase, antagonist mode, 0.1 nM E2, 22 h; series mostly up to 92.4 µM
Records with an inconclusive call do not appear. Activity calls are given as the source filed them. Calls follow the shape of the dose curve; as a rule, active = well fitted inhibition curve with a large enough effect in the repeat runs; inconclusive = weak or mixed curves; inactive = no such curve, though single readings can be large or run the other way.
measure_name: activity change, negative = inhibition

>>> assay_value("O=C(NC(O)C(Cl)(Cl)Cl)NC(O)C(Cl)(Cl)Cl (stereo not given)")
"inactive"
>>> assay_value("NNCc1ccccc1")
"inactive"
>>> assay_value("C=C(Cl)CCl")
"inactive"
>>> assay_value("NC(=O)OCCCc1ccccc1")
"inactive"
>>> assay_value("Nc1c(Cl)c(F)nc(OCC(=O)O)c1Cl")
"inactive"
>>> assay_value("CC(C)(C)C(=O)Cl")
"inactive"
>>> assay_value("CNC(=O)NC(O)C(Cl)(Cl)Cl (stereo not given)")
"inactive"
>>> assay_value("CC(C)(O)C(Cl)(Cl)Cl")
"inactive"
>>> assay_value("CC#Cc1cc(C)nc(Nc2ccccc2)n1")
"inactive"
>>> assay_value("ClC(Cl)(Cl)Cl")
"inactive"
>>> assay_value("CCCCCCC(=O)CCCCCC/C=C/C[C@@H](O)[C@H](O)[C@@](N)(CO)C(=O)O")
"5.03% [at 19 µM] (inactive)"
>>> assay_value("CCCOC(=O)c1cncn1C(C)c1ccccc1 (stereo not given)")
"inactive"
>>> assay_value("CNC(=O)Oc1ccccc1C(C)C")
"inactive"
>>> assay_value("O=c1[nH]oc2c1CCNC2")
"inactive"
>>> assay_value("ClC1=C(Cl)C2(Cl)C(CBr)CC1(Cl)C2(Cl)Cl (stereo not given)")
"inactive"
